Target: HDAC6 (Homo sapiens, UniProt Q9UBN7)
Sequence (Q9UBN7 1-1215): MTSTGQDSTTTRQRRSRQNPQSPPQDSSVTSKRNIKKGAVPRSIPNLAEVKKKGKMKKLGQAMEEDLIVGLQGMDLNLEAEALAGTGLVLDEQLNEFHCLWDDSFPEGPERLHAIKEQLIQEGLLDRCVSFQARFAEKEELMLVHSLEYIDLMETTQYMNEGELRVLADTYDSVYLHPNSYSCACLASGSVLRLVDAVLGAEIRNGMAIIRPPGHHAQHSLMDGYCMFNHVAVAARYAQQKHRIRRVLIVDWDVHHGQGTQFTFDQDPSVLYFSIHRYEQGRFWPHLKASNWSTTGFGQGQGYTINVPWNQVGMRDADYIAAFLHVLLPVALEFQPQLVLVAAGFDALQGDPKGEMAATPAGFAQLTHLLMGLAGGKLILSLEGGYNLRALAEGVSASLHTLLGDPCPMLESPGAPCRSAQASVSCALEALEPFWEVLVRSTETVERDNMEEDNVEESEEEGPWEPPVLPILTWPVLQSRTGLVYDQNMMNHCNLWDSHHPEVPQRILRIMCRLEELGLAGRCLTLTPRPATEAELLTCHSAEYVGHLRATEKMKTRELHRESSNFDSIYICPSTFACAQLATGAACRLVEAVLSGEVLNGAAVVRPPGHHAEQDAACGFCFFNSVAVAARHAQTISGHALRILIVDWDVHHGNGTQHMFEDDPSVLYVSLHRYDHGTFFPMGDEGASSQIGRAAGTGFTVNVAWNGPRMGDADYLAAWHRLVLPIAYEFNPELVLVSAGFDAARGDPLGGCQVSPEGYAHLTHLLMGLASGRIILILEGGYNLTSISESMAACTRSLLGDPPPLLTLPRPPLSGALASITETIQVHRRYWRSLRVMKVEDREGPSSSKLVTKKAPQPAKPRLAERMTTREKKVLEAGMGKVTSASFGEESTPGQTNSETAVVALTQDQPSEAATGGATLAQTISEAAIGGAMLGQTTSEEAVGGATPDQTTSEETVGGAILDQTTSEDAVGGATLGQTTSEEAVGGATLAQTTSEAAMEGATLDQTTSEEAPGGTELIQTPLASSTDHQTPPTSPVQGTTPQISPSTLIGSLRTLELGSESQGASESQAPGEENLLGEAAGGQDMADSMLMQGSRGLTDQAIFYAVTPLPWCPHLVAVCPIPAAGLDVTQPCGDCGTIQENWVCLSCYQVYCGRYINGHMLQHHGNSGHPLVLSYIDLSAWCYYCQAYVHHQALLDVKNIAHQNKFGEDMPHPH

{"compound": "CC(=O)NC=CCCCCNC(=O)CCCCCNc1ccc([N+](=O)[O-])c2nonc12 [HP-1]", "u": "µM", "IC50": 12}

* * *

target: HDAC2 (Homo sapiens)
Sequence (Q92769 whole entry, species assumed): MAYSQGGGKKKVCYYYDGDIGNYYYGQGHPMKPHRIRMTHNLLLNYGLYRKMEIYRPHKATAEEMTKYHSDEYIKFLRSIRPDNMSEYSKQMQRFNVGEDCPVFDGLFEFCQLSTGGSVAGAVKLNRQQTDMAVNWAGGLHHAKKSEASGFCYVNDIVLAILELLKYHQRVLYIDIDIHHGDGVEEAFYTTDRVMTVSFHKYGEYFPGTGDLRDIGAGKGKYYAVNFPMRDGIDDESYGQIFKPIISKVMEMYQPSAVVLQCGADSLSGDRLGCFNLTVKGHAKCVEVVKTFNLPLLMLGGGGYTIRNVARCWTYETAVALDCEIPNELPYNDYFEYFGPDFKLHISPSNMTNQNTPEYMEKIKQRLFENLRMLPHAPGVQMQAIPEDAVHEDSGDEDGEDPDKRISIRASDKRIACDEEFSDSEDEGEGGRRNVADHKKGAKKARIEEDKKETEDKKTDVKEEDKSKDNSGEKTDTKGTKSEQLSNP
pIC50: −log10 of the molar value.

{"chemicalSmiles": "CC(=O)NC=CCCCCNC(=O)CCCCCNc1ccc([N+](=O)[O-])c2nonc12", "pIC50": "< 4.15"}

* * *

target: HDAC1 (Homo sapiens, UniProt Q13547)
Sequence (Q13547 whole entry): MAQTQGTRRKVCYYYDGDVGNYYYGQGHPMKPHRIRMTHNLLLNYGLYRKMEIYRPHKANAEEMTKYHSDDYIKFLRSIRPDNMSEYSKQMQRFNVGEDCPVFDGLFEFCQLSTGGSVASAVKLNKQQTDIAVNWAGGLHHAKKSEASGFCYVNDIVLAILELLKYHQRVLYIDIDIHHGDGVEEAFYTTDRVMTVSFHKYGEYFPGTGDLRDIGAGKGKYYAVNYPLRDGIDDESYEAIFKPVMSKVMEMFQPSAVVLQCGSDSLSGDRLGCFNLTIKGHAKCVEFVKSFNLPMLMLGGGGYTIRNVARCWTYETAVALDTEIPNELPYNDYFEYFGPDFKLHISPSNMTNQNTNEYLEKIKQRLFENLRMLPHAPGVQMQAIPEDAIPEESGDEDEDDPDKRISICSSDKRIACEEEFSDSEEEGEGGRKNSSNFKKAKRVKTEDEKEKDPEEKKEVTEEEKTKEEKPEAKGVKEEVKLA
pIC50: −log10 of the molar value.

{"compound": "CC(=O)NC=CCCCCNC(=O)CCCCCNc1ccc([N+](=O)[O-])c2nonc12 [HP-1]", "pIC50": 4.45}

* * *

target: HDAC3 (Homo sapiens, UniProt O15379)
Sequence (O15379 whole entry): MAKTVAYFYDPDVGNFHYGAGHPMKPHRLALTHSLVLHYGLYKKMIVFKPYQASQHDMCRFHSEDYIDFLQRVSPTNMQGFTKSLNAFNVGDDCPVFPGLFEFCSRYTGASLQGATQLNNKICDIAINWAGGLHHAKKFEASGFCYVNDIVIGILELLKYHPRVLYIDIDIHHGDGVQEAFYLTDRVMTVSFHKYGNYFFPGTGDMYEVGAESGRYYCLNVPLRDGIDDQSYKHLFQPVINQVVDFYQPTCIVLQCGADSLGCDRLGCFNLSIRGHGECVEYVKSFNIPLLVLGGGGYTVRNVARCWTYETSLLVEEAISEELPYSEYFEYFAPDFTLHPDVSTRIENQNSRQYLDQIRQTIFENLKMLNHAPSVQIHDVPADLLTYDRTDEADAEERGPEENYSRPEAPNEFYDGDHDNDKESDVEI
Sequence (Q9Y618 395-489 partner limits assumed): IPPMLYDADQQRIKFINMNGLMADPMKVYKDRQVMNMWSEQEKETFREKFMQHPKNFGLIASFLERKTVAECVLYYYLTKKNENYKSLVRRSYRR
pIC50: −log10 of the molar value.

{"chemicalSmiles": "CC(=O)NC=CCCCCNC(=O)CCCCCNc1ccc([N+](=O)[O-])c2nonc12", "pIC50": 4.23}

Measured values drawn from patent US20160138077A1 for this set.
